Data origin, for the record: ChEMBL document CHEMBL2010757

Data export: pIC50 values recorded with Butyrylcholinesterase (Equus caballus, UniProt Q9N1N9).
Sequence (Q9N1N9 whole entry): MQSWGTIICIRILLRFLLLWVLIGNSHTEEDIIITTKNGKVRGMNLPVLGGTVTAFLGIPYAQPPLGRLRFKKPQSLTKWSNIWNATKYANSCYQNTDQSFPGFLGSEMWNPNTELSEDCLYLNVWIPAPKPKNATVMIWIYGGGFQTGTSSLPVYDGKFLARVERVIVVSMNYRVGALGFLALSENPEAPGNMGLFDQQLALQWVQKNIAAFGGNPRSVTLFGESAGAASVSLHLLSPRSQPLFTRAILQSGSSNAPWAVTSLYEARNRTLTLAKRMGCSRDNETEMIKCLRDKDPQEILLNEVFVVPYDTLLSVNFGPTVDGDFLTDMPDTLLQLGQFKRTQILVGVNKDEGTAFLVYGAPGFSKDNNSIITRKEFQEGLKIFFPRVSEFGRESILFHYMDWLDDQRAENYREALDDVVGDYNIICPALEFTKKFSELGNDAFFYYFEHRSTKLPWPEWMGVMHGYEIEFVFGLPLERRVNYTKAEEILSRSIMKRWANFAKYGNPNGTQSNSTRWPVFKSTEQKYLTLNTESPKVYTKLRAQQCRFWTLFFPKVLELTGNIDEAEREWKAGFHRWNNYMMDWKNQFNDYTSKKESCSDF
In textbook form, pIC50 equals minus log to base ten of the concentration in mol/L.

Reference set, count: 8
COMPOUND	pIC50
COc1c(O)cc(C2CC(=O)c3c(cc(O)c(C/C=C(\C)CCC=C(C)C)c3O)O2)cc1O (centres undefined)	5.19
COc1ccc([C@@H]2CC(=O)c3c(O)cc(O)cc3O2)cc1O [HESPERETIN]	2.75
O=C1C[C@@H](c2ccc(O)c(O)c2)Oc2cc(O)cc(O)c21 [ERIODICTYOL]	2.95
CC(C)=CCC/C(C)=C/Cc1c(O)cc2c(c1O)C(=O)C[C@@H](c1ccc(O)c(O)c1)O2 [NYMPHAEOL A]	5.85
COc1cc([C@@H]2CC(=O)c3c(cc(O)c(C/C=C(\C)CCC=C(C)C)c3O)O2)ccc1O	4.61
COc1c(O)cc(C2Oc3cc(O)c(C/C=C(\C)CCC=C(C)C)c(O)c3C(=O)[C@@H]2O)cc1O (some centres undefined)	5.42
O=C1C[C@@H](c2ccc(O)cc2)Oc2cc(O)cc(O)c21 [NARINGENIN]	2.83
COc1ccc([C@@H]2CC(=O)c3c(cc(O)c(C/C=C(\C)CCC=C(C)C)c3O)O2)cc1O	4.59

Let us examine a further case.
Let me check: COc1cc(C2CC(=O)c3c(cc(O)c(C/C=C(\C)CCC=C(C)C)c3O)O2)cc(OC)c1O (centres undefined) , system Butyrylcholinesterase (Equus caballus, UniProt Q9N1N9), measured pIC50 is 4.10

====

pIC50, Acetylcholinesterase (Homo sapiens, UniProt P22303), per-entry values.
Answer as the number alone; pIC50 is minus log10 of concentration in mol/L.

Use the examples below as a reference point.
COMPOUND	SYSTEM	pIC50
COc1cc([C@H]2Oc3cc(O)c(C/C=C(\C)CCC=C(C)C)c(O)c3C(=O)[C@@H]2O)ccc1O	Acetylcholinesterase (Homo sapiens, UniProt P22303)	4.31
COc1c(O)cc(C2CC(=O)c3c(cc(O)c(C/C=C(\C)CCC=C(C)C)c3O)O2)cc1O (stereo not drawn)	Acetylcholinesterase (Homo sapiens, UniProt P22303)	4.64
COc1cc([C@@H]2CC(=O)c3c(cc(O)c(C/C=C(\C)CCC=C(C)C)c3O)O2)ccc1O	Acetylcholinesterase (Homo sapiens, UniProt P22303)	3.96
COc1ccc([C@H]2Oc3cc(O)c(C/C=C(\C)CCC=C(C)C)c(O)c3C(=O)[C@@H]2O)cc1O	Acetylcholinesterase (Homo sapiens, UniProt P22303)	4.50
COc1ccc([C@@H]2CC(=O)c3c(O)cc(O)cc3O2)cc1O	Acetylcholinesterase (Homo sapiens, UniProt P22303)	2.61

Here CC(C)=CCC/C(C)=C/Cc1c(O)cc2c(c1O)C(=O)C[C@@H](c1ccc(O)c(O)c1)O2 was tested on Acetylcholinesterase (Homo sapiens, UniProt P22303), and its pIC50 came to 5.14

The compound CC(C)=CCC/C(C)=C/Cc1c(O)cc2c(c1O)C(=O)C[C@@H](c1ccc(O)cc1)O2 on Acetylcholinesterase (Homo sapiens, UniProt P22303): pIC50 was 4.04

// returns pIC50 for O=C1C[C@@H](c2ccc(O)cc2)Oc2cc(O)cc(O)c21 with Acetylcholinesterase (Homo sapiens, UniProt P22303); value = 2.69
